- System: Trichosporon asahii
- assayExplanation: Antifungal activity against Trichosporon asahii 1188 after 24 hrs by broth microdilution assay
- Assay type: functional
- conditionSet: Trichosporon asahii, 1188, 24 h
MIC for assorted molecules
Respond with the bare value in µM.

Consider the following illustrative entries.
compoundstructurestring=Oc1ccccc1C(=S)NCc1ccc(Cl)c(Cl)c1 unitslabel=µM valueobserved=15.6
compoundstructurestring=Oc1ccc(Cl)cc1C(=S)NCc1ccccc1 unitslabel=µM valueobserved=31.2
compoundstructurestring=Oc1ccccc1C(=S)NCc1cccc(Cl)c1 unitslabel=µM valueobserved=31.2
compoundstructurestring=Oc1ccc(Br)cc1C(=S)NCc1ccc(Cl)c(Cl)c1 unitslabel=µM valueobserved=3.9
compoundstructurestring=OC(Cn1cncn1)(Cn1cncn1)c1ccc(F)cc1F unitslabel=µM valueobserved=4

Exam item: GET /values?readout=MIC&item= Cc1ccc(CNC(=S)c2cc([N+](=O)[O-])ccc2O)cc1
Marked response: 500

Exam item: Next entry: Oc1ccc(Cl)cc1C(=S)NCc1ccc(Cl)c(Cl)c1
Marked response: 3.9
